- System: SF-539
- testName: NCI tumour cell line growth inhibition, 48 h
The source made the active and inactive calls. Rule as the data show it: active = GI50 up to about 1.1 µM and inactive = higher.
reportedMetric: GI50

Fill blank: measured GI50 of the compound NCCCCNc1ccc2c(=O)[nH][nH]c(=O)c2c1 is ____. > 100 µM (inactive)

Fill in the blank: the reported GI50 of O=C(O)c1cc2ccccc2c(/N=N\c2cc(C(F)(F)F)ccc2Cl)c1O is ____. 99.3 µM (inactive)

Field request: GI50 | item: CCCCN1CSC(=S)N(Cc2ccccc2)C1 > 100 µM (inactive)

GET /values?readout=GI50&item= OC(c1ccc(C(F)(F)F)cc1)C(F)(F)c1nc2ccccc2o1 (stereo not drawn) > 100 µM (inactive)

GI50 for N#C/C(=C\c1ccccc1)c1nc(-c2cc3ccccc3oc2=O)cs1 ? 58.5 µM (inactive)

Any idea what GI50 was measured for Nc1cc2[nH]cnc2c(=O)[nH]1 ? 16 µM (inactive)

# get_value(readout='GI50', item= COC(=O)[C@@]1(C)/C(=N/NS(=O)(=O)c2ccc(C)cc2)CCC[C@@H]1C ) 88.3 µM (inactive)

I am curious: what GI50 value has been reported for O=C1OC([C@H](O)c2cccnc2)c2ccccc21 (stereo partly drawn) ? > 10 µM (inactive)

Please look up its GI50: c1nc2cscc2c2cscc12 > 100 µM (inactive)

Return reported GI50; argument: COC(=O)NC1(NC(=O)OC)NC(=O)c2ccccc2N1 > 100 µM (inactive)

What value of GI50 has been reported for the following compound? CC(C)(C)OC(=O)NC1CCCC1=O (stereo not drawn) > 100 µM (inactive)

###

- System: SW-620
- testName: NCI tumour cell line growth inhibition, 48 h
The source made the active and inactive calls. No stated cut-off is given here; in the data, active = GI50 up to about 1.1 µM and inactive = higher.
Write down one outcome, taken from active, inactive

Previously resolved entries follow.
CC(=O)OC1CCC2OOC1O2 (centres undefined) | inactive
O=C1C(c2ccc([N+](=O)[O-])cc2)=[N+]([O-])c2ccc([N+](=O)[O-])cc21 | inactive

What classification did CCOc1ccccc1/N=N/C1C(=O)N(C(=O)CC(=O)Nc2ccccc2C)N=C1C (centres undefined) end up with in this test? inactive

Called result for Cc1ccc(/N=C2\C(=O)C3=C(OC(C)(C)CC3)c3ccccc32)cc1 active

Outcome logged for OC1CC(O)c2c(Cl)sc(Cl)c21 (centres undefined) in this assay: inactive

Query: recorded result category for NC1CCCCC1.O=P(O)(O)C(O)/C=C/c1ccccc1 (centres undefined) in this test inactive

What did the test return for CCOC(=O)c1ccc2nc3n(c2c1)C(c1c(F)cccc1F)SC3 (centres undefined) ? inactive

Can you look up the reported call for NC(=S)N1N=C2c3ccccc3CC[C@H]2[C@@H]1c1cccs1 for me? inactive

Hi, sorry to bother you, what did the test record for COC1=C(C)C(=O)C2=C(C1=O)C1C3CC4=C(C(=O)C(OC)=C(C)C4=O)C(CNC(=O)C(C)=O)N3C(C#N)C(C2)N1C (centres undefined) ? active

###

- Test system: SN12C
- testName: NCI tumour cell line growth inhibition, 48 h
Activity calls are given as the source filed them. No stated cut-off is given here; in the data, active = GI50 up to about 1.1 µM and inactive = higher.
GI50 for assorted compounds

Example entries begin here.
CCN(CC)c1oc(N(CC)CC)c(C(=O)Nc2ccccn2)c(=O)c1C(C)=O | > 100 µM (inactive)
CCP(=O)(CC)C(Cl)(Cl)C(O)C(C)(C)C (centres undefined) | > 100 µM (inactive)
COc1cc(CCC(=O)O)c2cc3ccccc3cc2c1O | 17.8 µM (inactive)

--- query ---
Please report the recorded GI50 for Cc1ccc(C(=O)Nc2ccc(CP(=O)(O)O)cc2CP(=O)(O)O)cc1N . > 100 µM (inactive)
